Target: human ACMSD (Homo sapiens (Human), UniProt Q8TDX5)
Sequence (Q8TDX5 whole entry): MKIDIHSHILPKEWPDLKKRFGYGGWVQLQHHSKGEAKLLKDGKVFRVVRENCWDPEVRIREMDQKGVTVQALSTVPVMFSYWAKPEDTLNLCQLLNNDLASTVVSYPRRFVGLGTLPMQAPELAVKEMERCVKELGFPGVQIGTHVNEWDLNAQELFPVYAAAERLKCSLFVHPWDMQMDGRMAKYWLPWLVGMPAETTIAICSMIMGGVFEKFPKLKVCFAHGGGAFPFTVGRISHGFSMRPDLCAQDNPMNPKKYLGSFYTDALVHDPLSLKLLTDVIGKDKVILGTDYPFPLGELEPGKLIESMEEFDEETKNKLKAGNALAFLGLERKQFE
The following compounds are shown together with reported log10(IC50) values.
Transform log10 | Measure IC50 | Unit nM

Examples with answers:
compound	log10(IC50)
Cc1ccc(C(=O)O)cc1CSc1[nH]c(=O)cc(C(F)(F)F)c1C#N [Ex. 44]	2.71
N#Cc1c(-c2ccccc2)cc(=O)[nH]c1SCc1cccc(C(=O)O)n1 [Ex. 33]	2.28
N#Cc1c(C(F)(F)F)cc(=O)[nH]c1SCc1cccc(C(=O)O)c1 [Ex. 8]	3.21
Cc1c(C(F)(F)F)c(C#N)c(SCc2nnn[nH]2)[nH]c1=O [Ex. 47]	0.85
Cc1cc(=O)[nH]c(SCc2cccc(C(=O)O)c2)c1C#N [Ex. 56]	3.83

q: Please report the recorded log10(IC50) for Cc1cc(=O)[nH]c(SCC(=O)O)c1C#N [reference compound] .
a: 3.48

q: Fill blank: measured log10(IC50) of the compound N#Cc1c(SCc2nnn[nH]2)[nH]c(=O)c(F)c1C(F)(F)F [Ex. 48] is ____.
a: 0.30

q: Would you mind telling me what log10(IC50) value was observed for COc1c(C(F)(F)F)c(C#N)c(SCC(=O)O)[nH]c1=O [Ex. 46] ?
a: 0.90

q: Query (compound): Cc1c(C(F)(F)F)c(C#N)c(SCC(=O)O)[nH]c1=O [Ex. 5] ; field requested: log10(IC50)
a: 1.41
